- Test system: G-quadruplex in promoter region of the c-myc gene (NHE III1 segment)
- assay.overview: Dual luciferase analysis with plasmid pGL4.10-myc (luc2) in HGC-27 cells
- Format: cell-based, human
- conditions: Homo sapiens, HGC-27, text summary of tab. 5 (50 μmol·l^−1); read-out: inhibition of expression of firefly luciferase as compared to control
Answer each item with its documented inhibition at 50 µM.

Worked examples, 3 compounds total:
{"compound": "Cc1c(C)c2c(c3c1CC[n+]1ccc(/C=C/c4ccsc4)cc1-3)-c1cccc(/C=C/c3ccsc3)[n+]1CC2 (racemic) [MJB-C5-9]", "system.tested": "G-quadruplex in promoter region of the c-myc gene (NHE III1 segment)", "recorded.value": "> 20%"}
{"compound": "CCOC(=O)c1cc(/C=C/c2cc[n+]3c(c2)-c2c(c(C)c(C)c4c2-c2c5ccccc5cc[n+]2CC4)CC3)c[nH]1.O=S(=O)([O-])C(F)(F)F.O=S(=O)([O-])C(F)(F)F [MJA-C8-28]", "system.tested": "G-quadruplex in promoter region of the c-myc gene (NHE III1 segment)", "recorded.value": "> 20%"}
{"compound": "C(=C\\c1c(-c2ccccc2)[nH]c2ccccc12)/c1cc2ccccc2[n+]2c1-c1c(ccc3c1-c1cccc[n+]1CCC3)CCC2.O=S(=O)([O-])C(F)(F)F.O=S(=O)([O-])C(F)(F)F [MSC-C15-8]", "system.tested": "G-quadruplex in promoter region of the c-myc gene (NHE III1 segment)", "recorded.value": "> 20%"}

Quick batch: inhibition at 50 µM for everything below.
1. C(=C\c1c[nH]c2c1ccc1ccccc12)/c1cc2ccccc2[n+]2c1-c1c(ccc3c1-c1cccc[n+]1CCC3)CCC2 [MSC-C13-16]
2. O=[N+]([O-])c1cccc2[nH]cc(/C=C/c3cc[n+]4c(c3)-c3c(ccc5c3-c3cccc[n+]3CC5)CC4)c12 (racemic) [LSA-C9-32]
3. C(=C\c1cc2ccccc2[n+]2c1-c1c(ccc3c1-c1cccc[n+]1CCC3)CCC2)/c1ccc2[nH]ccc2c1 [MSC-C9-10]
4. Brc1ccc2[nH]cc(/C=C/c3cc4ccccc4[n+]4c3-c3c(ccc5c3-c3cccc[n+]3CCC5)CCC4)c2c1.O=S(=O)([O-])C(F)(F)F.O=S(=O)([O-])C(F)(F)F [MSC-C9-30]
5. C(=C\c1cc(/C=C/c2ccsc2)[n+]2c(c1)-c1c(ccc3c1-c1cccc[n+]1CC3)CC2)/c1ccsc1 [HTA-C5-9]
6. COc1ccc(/C=C/c2cc[n+]3c(c2)-c2c(ccc4c2-c2cc(/C=C/c5ccc(OC)nc5OC)cc[n+]2CC4)CC3)c(OC)n1 [PDA-C8-27]

1: > 10%; 2: > 20%; 3: > 40%; 4: > 20%; 5: > 10%; 6: > 20%

---

- System: G-quadruplex in promoter region of the c-myc gene (NHE III1 segment)
- assay.overview: Dual luciferase analysis with plasmid pGL4.10-myc (luc2) in HGC-27 cells
- Type: cell-based, human
- conditions: Homo sapiens, HGC-27, text summary of tab. 5 (50 μmol·l^−1); read-out: inhibition of expression of firefly luciferase as compared to control
reported.property: inhibition at 50 µM

{"smiles.structure": "COc1ccc(/C=C/c2cc[n+]3c(c2)-c2c(c(C)c(C)c4c2-c2cccc(/C=C/c5ccc(OC)nc5OC)[n+]2CC4)CC3)c(OC)n1.O=S(=O)([O-])C(F)(F)F.O=S(=O)([O-])C(F)(F)F", "system.tested": "G-quadruplex in promoter region of the c-myc gene (NHE III1 segment)", "inhibition at 50 µM": "> 10%"}
{"smiles.structure": "C(=C\\c1cccc2c1oc1ccccc12)/c1cc[n+]2c(c1)-c1c(ccc3c1-c1cccc[n+]1CC3)CC2.O=S(=O)([O-])C(F)(F)F.O=S(=O)([O-])C(F)(F)F", "system.tested": "G-quadruplex in promoter region of the c-myc gene (NHE III1 segment)", "inhibition at 50 µM": "> 40%"}

As a next step, examine the molecule that follows.
// inhibition at 50 µM lookup, molecule = Cc1c(C)c2c(c3c1CC[n+]1ccc(/C=C/c4c[nH]c5ccc(Br)cc45)cc1-3)-c1c3ccccc3cc[n+]1CC2 , result: > 40%

---

- Test system: HUVEC
- assay.overview: XTT cytotoxicity/proliferation assay, HUVEC
- Type: cell-based, human
- conditions: Homo sapiens, HUVEC, 72 hours of treatment, values above 100 μmol·l^−1 obtained by extrapolation, read-out: IC50 HUVEC
reported.property: IC50

Could I get IC50 for every one of these entries?
1. C(=C\c1cc2ccccc2[n+]2c1-c1c(ccc3c1-c1cccc[n+]1CCC3)CCC2)/c1ccc2[nH]ccc2c1
2. O=[N+]([O-])c1cccc2[nH]cc(/C=C/c3cc[n+]4c(c3)-c3c(ccc5c3-c3cccc[n+]3CC5)CC4)c12 (racemic)
3. Cc1c(C)c2c(c3c1CC[n+]1ccc4ccccc4c1-3)-c1cccc(/C=C/c3ccc(-c4ccc(-c5cccs5)s4)s3)[n+]1CC2.O=S(=O)([O-])C(F)(F)F.O=S(=O)([O-])C(F)(F)F

≥ 100 µM
≥ 100 µM
≥ 51 µM

---

For each of the compounds below, state its IC50.
- System: HUVEC
- assay.overview: XTT cytotoxicity/proliferation assay, HUVEC
- Assay type: cell-based, human
- conditions: Homo sapiens, HUVEC, 72 hours, summary of table 9, read-out: concentrations non-toxic towards HUVEC cells

// below: answered compounds
{"compound": "C(=C\\c1c[nH]c2c1ccc1ccccc12)/c1cc2ccccc2[n+]2c1-c1c(ccc3c1-c1cccc[n+]1CCC3)CCC2 [MSC-C13-16]", "IC50": "> 100 µM"}
{"compound": "Cc1c(C)c2c(c3c1CC[n+]1ccc(/C=C/c4ccc5oc6ccccc6c5c4)cc1-3)-c1c3ccccc3cc[n+]1CC2 [MJA-C13-22]", "IC50": "> 100 µM"}

# IC50 of C(=C\c1cc2ccccc2[n+]2c1-c1c(ccc3c1-c1cccc[n+]1CCC3)CCC2)/c1ccc(-c2cccs2)s1.O=S(=O)([O-])C(F)(F)F.O=S(=O)([O-])C(F)(F)F [MSC-C9-16] = > 100 µM

---

- System: G-quadruplex in promoter region of the c-myc gene (NHE III1 segment)
- assay.overview: Dual luciferase analysis with plasmid pGL4.10-myc (luc2) in HGC-27 cells
- Format: cell-based, human
- conditions: Homo sapiens, HGC-27, text summary of tab. 5 (50 μmol·l^−1); read-out: inhibition of expression of firefly luciferase as compared to control
- Source text: A dual luciferase analysis was used to determine the degree of stabilization of G-quadruplex in a promoter region of the c-myc gene on cellular level. Stabilization of G-quadruplex is expressed as the ratio of expression of two luciferases (firefly and Renilla) from the co-transfected vectors pGL4.10-myc (luc2) and pRL-TK (Renilla) into a cell line HGC-27 expressing c-myc protein. […]
reported.property: inhibition at 50 µM

Solved cases below.
{"molecule": "Cc1c(C)c2c(c3c1CC[n+]1ccc4ccccc4c1-3)-c1cccc(/C=C/c3cccc4c3oc3ccccc34)[n+]1CC2.O=S(=O)([O-])C(F)(F)F.O=S(=O)([O-])C(F)(F)F", "reported.property": "inhibition at 50 µM", "recorded.value": "> 20%"}
{"molecule": "Cc1c(C)c2c(c3c1CC[n+]1ccc(/C=C/c4cccc5c4oc4ccccc45)cc1-3)-c1c3ccccc3cc[n+]1CC2 (racemic)", "reported.property": "inhibition at 50 µM", "recorded.value": "> 40%"}

inhibition at 50 µM recorded for this molecule, Cn1c(/C=C/c2cc3ccccc3[n+]3c2-c2c(ccc4c2-c2cccc[n+]2CCC4)CCC3)cc2ccccc21 , is > 10%
